Ref: patent US20240116946A1

Consider the following molecules and their measured pIC50 readings.
# Experimental System: recombinant SARS-CoV-2 Main protease (Mpro) (Severe acute respiratory syndrome coronavirus 2 (2019-nCoV) (SARS-CoV-2))
# Protocol Description: Cov Mpro Biochemical IC50 Assay
# Measurement Context: recombinant SARS-CoV-2 Mpro, fluorogenic peptide substrate; read-out: MPro IC50
Hey, just a heads up that pIC50 is the negative log base 10 of the concentration in molar.

[
  {
    "Smiles Str": "COc1cncc(-n2c(=O)[nH]c3cc(-c4ccccc4Cl)sc3c2=O)c1",
    "pIC50": 6.52
  },
  {
    "Smiles Str": "CCc1cncc(-n2c(=O)[nH]c3cc(-c4ccccc4Cl)sc3c2=O)c1",
    "pIC50": 7.18
  },
  {
    "Smiles Str": "COCc1ccccc1-c1ccc2c(=O)n(-c3cncc4ccccc34)c(=O)[nH]c2c1",
    "pIC50": 6.13
  }
]

Alright, here's another molecule for you.
Input: // pIC50 lookup, key: COc1ccc(Cl)c(-c2cc3[nH]c(=O)n(-c4cncc(C)c4OCC(F)(F)F)c(=O)c3s2)c1
Output: 7.83

###

# Experimental System: recombinant SARS-CoV-2 Main protease (Mpro) (Severe acute respiratory syndrome coronavirus 2 (2019-nCoV) (SARS-CoV-2), UniProt P0DTD1)
# Protocol Description: Cov Mpro Biochemical IC50 Assay
# Measurement Context: recombinant SARS-CoV-2 Mpro, fluorogenic peptide substrate; read-out: MPro IC50
Consider the following molecules and their measured pIC50 readings.
Hey, just a heads up that pIC50 is the negative log base 10 of the concentration in molar.

Past entries and their recorded results:
[
  {
    "Molecule": "O=c1[nH]c2cc(-c3c(Cl)cccc3-c3cn(CC(F)F)nn3)ccc2c(=O)n1-c1cncc2ccccc12 [Example 292]",
    "pIC50": 6.92
  },
  {
    "Molecule": "O=c1[nH]c2cc(-c3c(Cl)cccc3-c3ccc4oncc4c3)ccc2c(=O)n1-c1cncc2ccccc12 [Example 361]",
    "pIC50": 7.41
  },
  {
    "Molecule": "COC(=O)Cn1c(=O)n(-c2cncc3ccccc23)c(=O)c2sc(-c3ccccc3Cl)cc21 [Example 220]",
    "pIC50": 7.54
  },
  {
    "Molecule": "Cc1ccc2cncc(-n3c(=O)[nH]c4cc(-c5ccccc5Cl)ccc4c3=O)c2c1 [Example 109]",
    "pIC50": 6.58
  },
  {
    "Molecule": "N#Cc1cccc(-c2ccc3c(=O)n(-c4cncc5ccccc45)c(=O)[nH]c3c2)c1 [Example 34]",
    "pIC50": 5.82
  },
  {
    "Molecule": "Cc1nn(C(C)(C)C)cc1-c1cccc(Cl)c1-c1ccc2c(=O)n(-c3cncc4ccccc34)c(=O)[nH]c2c1 [Example 274]",
    "pIC50": 7.08
  }
]

Input: // pIC50 lookup, key: CCOc1ccc(Cl)c(-c2ccc3c(=O)n(-c4cncc5ccccc45)c(=O)[nH]c3c2)c1 [Example 300]
Output: 6.83

Input: // pIC50 lookup, key: COc1cccc(Cl)c1-c1cnc2c(=O)n(-c3cncc4ccccc34)c(=O)[nH]c2c1 [Example 48]
Output: 7.02

Input: // pIC50 lookup, key: O=c1[nH]c2cc(-c3ccccc3OCc3ccccc3)sc2c(=O)n1-c1cncc2ccccc12 [Example 18]
Output: 5.53

Input: // pIC50 lookup, key: Cc1nn(CC(F)(F)F)cc1-c1cccc(Cl)c1-c1ccc2c(=O)n(-c3cncc4ccccc34)c(=O)[nH]c2c1 [Example 285]
Output: 7.72

Input: // pIC50 lookup, key: COc1ccc2cncc(-n3c(=O)[nH]c4cc(-c5ccccc5Cl)ccc4c3=O)c2c1 [Example 237]
Output: 7.06

Input: // pIC50 lookup, key: Cc1ccncc1-n1c(=O)[nH]c2cc(-c3ccccc3Cl)sc2c1=O [Example 216]
Output: 7.21

Input: // pIC50 lookup, key: Cc1c(-c2cccc(Cl)c2-c2cc3[nH]c(=O)n(-c4cncc5ccccc45)c(=O)c3s2)cn2ncnc2c1C [Example 114]
Output: 7.96

Input: // pIC50 lookup, key: N#Cc1cncc(-c2cccc(Cl)c2-c2ccc3c(=O)n(-c4cncc5ccccc45)c(=O)[nH]c3c2)c1 [Example 298]
Output: 8.20

Input: // pIC50 lookup, key: CCCn1cc(-c2cccc(Cl)c2-c2ccc3c(=O)n(-c4cncc5ccccc45)c(=O)[nH]c3c2)c(C(F)(F)F)n1 [Example 200]
Output: 6.95
